Give IC50 for every item shown.
Target: aurora-A (human) (Homo sapiens)

Req: Return reported IC50; argument: `Cc1c(-c2ccnc(Nc3cccc(CCC(=O)N(C)C)c3)n2)c(C)n2c1C(=O)NCC2`
Resp: < 100 nM

Req: Which measured IC50 value corresponds to `Cc1c(-c2ccnc(Nc3ccc(CC(=O)N4CCN(C)CC4)cc3)n2)c(C)n2c1C(=O)NCC2` ?
Resp: < 100 nM

Req: Requested read-out: IC50. Entry: `Cc1c(-c2ccnc(Nc3cccc(CCC(=O)N(C)CCN(C)C)c3)n2)c(C)n2c1C(=O)NCC2`
Resp: < 1000 nM

Req: Looking for the measured IC50 of `Cc1c(-c2ccnc(Nc3cccc([N+](=O)[O-])c3)n2)c(C)n2c1C(=O)NCC2` , can you help?
Resp: < 1000 nM

Req: Field request: IC50 | item: Cc1c(-c2ccnc(Nc3ccc(N4CCOCC4)nc3)n2)c(C)n2c1C(=O)NCC2 [Example I-13a]
Resp: < 1000 nM

Req: Would you mind telling me what IC50 value was observed for `Cc1c(-c2ccnc(Nc3ccc4c(c3)OCCCO4)n2)c(C)n2c1C(=O)NCC2` ?
Resp: < 100 nM

Req: Report IC50 for Cc1c(-c2ccnc(Nc3cccc(S(=O)(=O)N4CCCCC4)c3)n2)c(C)n2c1C(=O)NCC2 [Example I-95c] please.
Resp: < 10000 nM

Req: Using the record for `Cc1c(-c2ccnc(Nc3ccc(C(=O)O)cc3)n2)c(C)n2c1C(=O)NCC2` , report its IC50.
Resp: < 100 nM

Req: Query: IC50; subject: `Cc1c(-c2ccnc(Nc3ccc(-c4cn5c(n4)SCC5)cc3)n2)c(C)n2c1C(=O)NCC2`
Resp: < 100 nM

Req: Fill blank: measured IC50 of the compound `Cc1c(-c2ccnc(Nc3ccc4c(c3)CS(=O)(=O)C4)n2)c(C)n2c1C(=O)N(C)CC2` is ____.
Resp: < 100 nM

Req: Fill in: IC50 of `Cc1c(-c2ccnc(Nc3ccc(CC(=O)N(C)CCN(C)C)cc3)n2)c(C)n2c1C(=O)NCC2` is ___
Resp: < 1000 nM

Req: Entry under review: `Cc1c(-c2ccnc(Nc3cccc(S(=O)(=O)N4CCOCC4)c3)n2)c(C)n2c1C(=O)NCC2` . Reported IC50?
Resp: < 1000 nM

Req: What measured IC50 goes with `Cc1c(-c2ccnc(Nc3ccc4c(c3)OCO4)n2)c(C)n2c1C(=O)NCC2` ?
Resp: < 1000 nM

Req: // IC50 lookup, key: `Cc1c(-c2ccnc(Nc3ccc(F)c(Cl)c3)n2)c(C)n2c1C(=O)NCC2`
Resp: < 1000 nM

Req: Name the recorded IC50 for `COc1cc(C(=O)O)ccc1Nc1nccc(-c2c(C)c3n(c2C)CCNC3=O)n1` .
Resp: < 1000 nM

Req: Would you kindly share the measured IC50 for `Cc1ccc(Nc2nccc(-c3c(C)c4n(c3C)CCNC4=O)n2)cc1` ?
Resp: < 1000 nM

====

Target: aurora-A (human) (Homo sapiens)
Readout name: IC50

Req: Recorded IC50 of COc1ccc(Nc2nccc(-c3c(C)c4n(c3C)CCNC4=O)n2)cn1 [Example I-13b] , please.
Resp: < 1000 nM

Req: Which IC50 value belongs to COc1ccc(Nc2nccc(-c3c(C)c4n(c3C)CCNC4=O)n2)cc1Cl [Example I-67] ?
Resp: < 100 nM

Req: Tell me the measured IC50 of Cc1c(-c2ccnc(Nc3ccc(-c4csc(CC#N)n4)cc3)n2)c(C)n2c1C(=O)NCC2 [Example I-84] , please.
Resp: < 1000 nM

Req: Quick one: IC50 for Cc1c(-c2ccnc(Nc3ccc(F)cc3Cl)n2)c(C)n2c1C(=O)NCC2 [Example I-86] ?
Resp: < 10000 nM

Req: Entry CNc1ccc(Nc2nccc(-c3c(C)c4n(c3C)CCNC4=O)n2)cc1OC [Example I-76] has what IC50?
Resp: < 1000 nM

====

Target: aurora-A (human) (Homo sapiens)
Sequence (O14965 1-403): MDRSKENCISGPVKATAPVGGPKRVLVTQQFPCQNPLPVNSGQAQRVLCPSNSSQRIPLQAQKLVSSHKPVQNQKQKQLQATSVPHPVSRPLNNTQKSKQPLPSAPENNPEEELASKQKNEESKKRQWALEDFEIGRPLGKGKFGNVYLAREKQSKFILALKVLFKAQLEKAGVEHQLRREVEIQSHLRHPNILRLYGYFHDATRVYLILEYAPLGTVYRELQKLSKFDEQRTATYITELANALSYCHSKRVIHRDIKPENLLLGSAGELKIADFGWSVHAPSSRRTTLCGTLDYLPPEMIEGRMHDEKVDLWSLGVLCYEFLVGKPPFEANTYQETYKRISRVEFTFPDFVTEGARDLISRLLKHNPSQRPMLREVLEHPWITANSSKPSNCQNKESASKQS
pIC50: −log10 of the molar value.
Answer each item with its documented pIC50.

Req: Hi! What's the reported pIC50 for COc1ccc(Nc2nccc(-c3c(C)c4n(c3C)CCNC4=O)n2)cc1O [Example I-28] on aurora-A (human) (Homo sapiens)?
Resp: > 6.00

Req: pIC50 of Cc1c(-c2ccnc(Nc3ccc(S(C)(=O)=O)cc3)n2)c(C)n2c1C(=O)NCC2 [Example I-33] on aurora-A (human) (Homo sapiens)?
Resp: > 7.00

Req: Short answer please: pIC50, aurora-A (human) (Homo sapiens), entry Cc1c(-c2ccnc(Nc3ccc(F)cc3F)n2)c(C)n2c1C(=O)NCC2 [Example I-66]
Resp: > 5.00

Req: Lab note: need pIC50 with aurora-A (human) (Homo sapiens) for entry Cc1c(-c2ccnc(Nc3ccc(-c4nncn4C)cc3)n2)c(C)n2c1C(=O)NCC2 [Example I-79] , please look it up.
Resp: > 6.00

Req: # get_value(readout= pIC50, system= aurora-A (human) (Homo sapiens)) for Cc1c(-c2ccnc(Nc3cccc(C(=O)c4ccccc4)c3)n2)c(C)n2c1C(=O)NCC2 [Example I-58]
Resp: > 6.00

Req: Quick check: pIC50 on aurora-A (human) (Homo sapiens), item CC(=O)N1CCN(c2ccc(Nc3nccc(-c4c(C)c5n(c4C)CCNC5=O)n3)cc2)CC1 [Example I-7] ?
Resp: > 6.00

Req: # returns recorded pIC50 (system: aurora-A (human) (Homo sapiens)) for Cc1nccc(-c2cccc(Nc3nccc(-c4c(C)c5n(c4C)CCN(C)C5=O)n3)c2)n1 [Example I-93]
Resp: > 7.00

Req: Lab note: need pIC50 for CC(=O)Nc1cccc(Nc2nccc(-c3c(C)c4n(c3C)CCNC4=O)n2)c1 [Example I-59] on aurora-A (human) (Homo sapiens), anyone have it?
Resp: > 7.00

Req: What value of pIC50 on aurora-A (human) (Homo sapiens) does Cc1c(-c2ccnc(Nc3cccc(CCC(=O)N4CCOCC4)c3)n2)c(C)n2c1C(=O)NCC2 [Example I-108] have?
Resp: > 7.00

Req: For aurora-A (human) (Homo sapiens), provide pIC50 of Cc1c(-c2ccnc(Nc3cccc(S(C)(=O)=O)c3)n2)c(C)n2c1C(=O)NCC2 [Example I-32] please.
Resp: > 7.00

Req: GET /values?readout=pIC50&system=aurora-A (human) (Homo sapiens)&item= Cc1nccc(-c2cccc(Nc3nccc(-c4c(C)c5n(c4C)CCNC5=O)n3)c2)n1 [Example I-46]
Resp: > 7.00

Req: Which measured pIC50 belongs to Cc1c(-c2ccnc(Nc3ccc(CC(N)=O)cc3)n2)c(C)n2c1C(=O)NCC2 [Example I-102] , tested on aurora-A (human) (Homo sapiens)?
Resp: > 7.00

Req: What value of pIC50 on aurora-A (human) (Homo sapiens) does CCOC(=O)c1cnn(-c2ccc(Nc3nccc(-c4c(C)c5n(c4C)CCNC5=O)n3)cc2)c1C [Example I-81] have?
Resp: > 6.00

Req: Can you look up pIC50 on aurora-A (human) (Homo sapiens) for Cc1c(-c2ccnc(Nc3ccc(C#N)cc3)n2)c(C)n2c1C(=O)NCC2 [Example I-77] ?
Resp: > 6.00

Req: What is its pIC50 for aurora-A (human) (Homo sapiens)? Entry: Cc1nc(-c2ccc(Nc3nccc(-c4c(C)c5n(c4C)CCNC5=O)n3)cc2)cs1 [Example I-71]
Resp: > 6.00

Req: Recall the recorded pIC50 for Cc1c(-c2ccnc(Nc3ccc(Cc4ccncc4)cc3)n2)c(C)n2c1C(=O)NCC2 [Example I-54] with aurora-A (human) (Homo sapiens) and state it.
Resp: > 6.00

Req: Give the reported pIC50 for COc1ccc(Nc2nccc(-c3c(C)c4n(c3C)CCNC4=O)n2)cc1 [Example I-4] (system: aurora-A (human) (Homo sapiens)).
Resp: > 6.00

====

So I've got a bunch of compounds here, and I need their pIC50 values.
Tested on: MiaPaCa
Test: MTT cytotoxicity assay MiaPaCa
Type: cell-based
Conditions: Homo sapiens, MIA PaCa-2; MiaPaCa cells, 96-h MTT
Description: The compounds of the invention were subjected to a standard cellular proliferation assay using cell lines […] and MiaPaCa (obtained from The European Collection of Cell Cultures). […] C.; Thomas, D. G.; Darling, J. L. Anti Cancer Drugs 1996, 7, 331-8; Loveland, B. E.; Johns, T. G.; Mackay, I. R.; Vaillant, F.; Wang, Z. X.; Hertzog, P. J. Biochemistry International 1992, 27, 501-10). In short: cells were seeded into 96-well plates according to doubling time and incubated overnight at 37° C. […]
Give only the number. pIC50 is defined as minus log10 of concentration in molar units.

Req: Fill blank: measured pIC50 of the compound `COc1cc(Nc2nccc(-c3c(C)c4n(c3C)CCNC4=O)n2)ccc1N1CCOCC1` is ____.
Resp: 5.73

Req: So what's the measured pIC50 for this one? `Cc1c(-c2ccnc(Nc3ccc(N4CCOCC4)cc3)n2)c(C)n2c1C(=O)NCC2`
Resp: 5.74
